tested on: COLO 205 colon; assay: NCI-60 one-dose screen, 48 h (100 = growth as untreated, 0 = no growth, -100 = all killed); conditions: 10 µM unless noted
Compounds without any hit were thinned out: in the full panel of roughly 83,000, 20% have a hit.
Answer each item with its documented growth.
Report the value in % with no unit label.

Query string: I would be grateful if you could share the reported growth for `Nc1cc(N)c2cccnc2c1O` .
Result string: 102

Query string: I would be grateful if you could share the reported growth for `CN(C)C(=O)OCc1nc2c(N3CCOCC3)nc(-c3ccccc3)nc2n1C` .
Result string: -70.5

Query string: I would be grateful if you could share the reported growth for `Cc1ccc(-c2csc(/N=C3\C(=O)Nc4ccccc43)n2)cc1` .
Result string: -15.6

Query string: I would be grateful if you could share the reported growth for `CCCC/C(=N\N=C(N)N)c1ccc(F)cc1` .
Result string: 8.47

Query string: I would be grateful if you could share the reported growth for `O=C(CCN1CCCC1)Nc1ccc2c(NCc3ccc(F)cc3)c3ccccc3nc2c1` .
Result string: -62.5

Query string: I would be grateful if you could share the reported growth for `N#C/C(=C\c1ccc(Br)cc1)n1nnc2cccc(F)c21` .
Result string: -12.5

Query string: I would be grateful if you could share the reported growth for `O=C1NC(=S)NC(=O)C1=Cc1cn(Cc2ccccn2)c2ccccc12` .
Result string: 58.4

Query string: I would be grateful if you could share the reported growth for `Cc1ccc2nc3c(cc2c1)CSc1nnc(-c2ccc[nH]c2=S)n1N3` .
Result string: 110

Query string: I would be grateful if you could share the reported growth for `CO[C@@H]1[C@H](N(C)C(=O)c2ccccc2)C[C@@H]2O[C@]1(C)n1c3ccccc3c3c4c(c5c6ccccc6n2c5c31)C(=O)NC4=O` .
Result string: 2.3

Query string: I would be grateful if you could share the reported growth for `N#Cc1c(Nc2ccccc2)nn2cc(-c3nc4ccccc4s3)c(N)nc12` .
Result string: 114

Query string: I would be grateful if you could share the reported growth for `CCOC(=O)N1CCc2c(sc3nc4nc[nH]n4c(=O)c23)C1` .
Result string: 102

Query string: I would be grateful if you could share the reported growth for `COc1ccc(/C=C/C(=O)c2ccc(Nc3ncnc4ccccc34)cc2)cc1OC` .
Result string: 109

Query string: I would be grateful if you could share the reported growth for `Cc1c(C2=CCCCC2)c2ccccn2c1C(=O)c1cccc(S(=O)(=O)N2CCOCC2)c1` .
Result string: 102

Query string: I would be grateful if you could share the reported growth for `O=C(CNCCO)Nc1ccc2ncnc(Nc3ccc(OCc4cccc(F)c4)c(Cl)c3)c2c1` .
Result string: 96

Query string: I would be grateful if you could share the reported growth for `O=C1Nc2c(ccc(Cl)c2Cl)/C1=C/c1ccc(O)cc1` .
Result string: 98.6

Query string: I would be grateful if you could share the reported growth for `Cc1cc(C(=O)Nc2ncnc3nc[nH]c23)no1` .
Result string: 104

Query string: I would be grateful if you could share the reported growth for `Nc1nnc2cc(Cl)ccc2n1` .
Result string: 103

Query string: I would be grateful if you could share the reported growth for `C(=N\Nc1ncc(-c2cc3cc4c(cc3o2)OCO4)s1)/c1c[nH]c2ccccc12` .
Result string: -28.8

Query string: I would be grateful if you could share the reported growth for `COc1ccc(-c2nc(N/N=C/c3cccc(O)c3)nc(N3CCOCC3)c2C#N)cc1` .
Result string: 74.1

Query string: I would be grateful if you could share the reported growth for Clc1ccc(N2N=C(c3cccc(Nc4ccncc4)c3)CC2c2ccc3c(c2)OCO3)cc1 (stereo not drawn) .
Result string: -52.8

Query string: I would be grateful if you could share the reported growth for CC1=CC2(C)/C=C(C)/C=C\CC(O)/C=C3/C=CC(=C4C(=O)OC2(CC1C)C4=O)OC3 (stereo not drawn) .
Result string: -80.5

Query string: I would be grateful if you could share the reported growth for `COc1ccc(C(=O)c2cc3c(N)c(C(=O)Nc4ccc(Cl)cc4)sc3nc2C)cc1` .
Result string: 85.8

Query string: I would be grateful if you could share the reported growth for `CCOC(=O)c1ccc(Nc2ccnc(SCC(=O)c3ccc(C#N)cc3)n2)cc1` .
Result string: 70.8

Query string: I would be grateful if you could share the reported growth for `C#CC(=O)Nc1cccc2c1cc(C)n2-c1nc2c(c(NCc3ccccc3)n1)CCCC2` .
Result string: -69.1

Query string: I would be grateful if you could share the reported growth for `CC(=O)Nc1ccc(C(=O)Nc2cc(-c3ccccc3)ccc2N)cc1` .
Result string: 35.5

Query string: I would be grateful if you could share the reported growth for `Cc1ccc(/C=C/C(=O)c2ccc(N)cc2)c(C)c1` .
Result string: 60.3

Query string: I would be grateful if you could share the reported growth for `COc1cccc2c1C(=O)c1c(O)c3c(c(O)c1C2=O)C[C@@](O)(C(=O)CO)C[C@@H]3O[C@H]1C[C@H](N)[C@@H](O)[C@H](C)O1` .
Result string: -86.6

Query string: I would be grateful if you could share the reported growth for `COc1ccc(/C(C)=N/NC(=O)CSc2nc3ccccc3c(=O)n2Cc2ccc(S(N)(=O)=O)cc2)c(OC)c1` .
Result string: 118

Query string: I would be grateful if you could share the reported growth for `O=c1[nH]nc(-c2ccc(Cl)cc2)cc1Cc1cccc([N+](=O)[O-])c1` .
Result string: 101

Query string: I would be grateful if you could share the reported growth for `COc1ccc(NC(=O)c2sc3nc(C)c(C(=O)CCc4cccc(OC)c4)cc3c2N)cc1` .
Result string: 44.1

Query string: I would be grateful if you could share the reported growth for `COc1ccc(-c2nc(SC(C)C)nc(NNC(N)=O)c2C#N)cc1` .
Result string: 117

Query string: I would be grateful if you could share the reported growth for `CCN(CC)CCCCCCNc1cc(OC)cc2cccnc12` .
Result string: -68.9

Query string: I would be grateful if you could share the reported growth for `NC(=O)c1ccc[n+](CC(=O)N2CCN(c3cc4c(cc3F)c(=O)c(C(=O)O)cn4C3CC3)CC2)c1` .
Result string: 63.1
